- Assay Details: Bioavailability in Sprague-Dawley rat administered at 10 mg/kg, iv
- Format: ADME, organism-based
- Assay Conditions: in vivo
Outcome Measure: bioavailability (%)
Output spec: scalar in %, unitless text.

Quick one: bioavailability of "O=C(Nc1ccccc1-c1cn2c(CN3CCNCC3)csc2n1)c1cnc2ccccc2n1" ?
25

###

- Experimental Target: NAD-dependent protein deacetylase sirtuin-2 (Homo sapiens)
- Sequence (Q8IXJ6 whole entry): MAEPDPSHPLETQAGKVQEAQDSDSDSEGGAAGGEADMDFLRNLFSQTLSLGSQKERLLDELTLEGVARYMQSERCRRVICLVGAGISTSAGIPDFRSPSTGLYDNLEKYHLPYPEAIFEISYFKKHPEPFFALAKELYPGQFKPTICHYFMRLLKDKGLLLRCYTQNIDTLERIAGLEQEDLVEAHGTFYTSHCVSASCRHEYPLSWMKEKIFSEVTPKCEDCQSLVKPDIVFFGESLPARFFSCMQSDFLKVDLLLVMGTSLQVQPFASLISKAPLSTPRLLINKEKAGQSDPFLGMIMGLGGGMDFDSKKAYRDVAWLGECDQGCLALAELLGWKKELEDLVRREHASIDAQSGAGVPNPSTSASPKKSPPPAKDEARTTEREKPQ
- Assay Details: Activation of SIRT2 by mass spectrometry assay
Outcome Measure: EC50

Solved entries (count: 3):
Smiles Str: O=C(Nc1ccccc1-c1cn2c(CN3CC[C@@H](O)C3)csc2n1)c1ccc2ccccc2c1
EC50: > 300 µM
//
Smiles Str: O=C(Nc1ccccc1-c1cn2c(CN3CCNCC3)csc2n1)c1cnc2ccccc2n1
EC50: 37 µM
//
Smiles Str: Oc1ccc(/C=C/c2cc(O)cc(O)c2)cc1
EC50: > 300 µM

Let us examine a further case.
EC50 of "COc1cc(C(=O)Nc2ccccc2-c2cn3c(CN4CCNCC4)csc3n2)cc(OC)c1OC" on NAD-dependent protein deacetylase sirtuin-2 (Homo sapiens)?
> 300 µM

###

- Experimental Target: NAD-dependent protein deacetylase sirtuin-1 (Homo sapiens)
- Sequence (whole entry): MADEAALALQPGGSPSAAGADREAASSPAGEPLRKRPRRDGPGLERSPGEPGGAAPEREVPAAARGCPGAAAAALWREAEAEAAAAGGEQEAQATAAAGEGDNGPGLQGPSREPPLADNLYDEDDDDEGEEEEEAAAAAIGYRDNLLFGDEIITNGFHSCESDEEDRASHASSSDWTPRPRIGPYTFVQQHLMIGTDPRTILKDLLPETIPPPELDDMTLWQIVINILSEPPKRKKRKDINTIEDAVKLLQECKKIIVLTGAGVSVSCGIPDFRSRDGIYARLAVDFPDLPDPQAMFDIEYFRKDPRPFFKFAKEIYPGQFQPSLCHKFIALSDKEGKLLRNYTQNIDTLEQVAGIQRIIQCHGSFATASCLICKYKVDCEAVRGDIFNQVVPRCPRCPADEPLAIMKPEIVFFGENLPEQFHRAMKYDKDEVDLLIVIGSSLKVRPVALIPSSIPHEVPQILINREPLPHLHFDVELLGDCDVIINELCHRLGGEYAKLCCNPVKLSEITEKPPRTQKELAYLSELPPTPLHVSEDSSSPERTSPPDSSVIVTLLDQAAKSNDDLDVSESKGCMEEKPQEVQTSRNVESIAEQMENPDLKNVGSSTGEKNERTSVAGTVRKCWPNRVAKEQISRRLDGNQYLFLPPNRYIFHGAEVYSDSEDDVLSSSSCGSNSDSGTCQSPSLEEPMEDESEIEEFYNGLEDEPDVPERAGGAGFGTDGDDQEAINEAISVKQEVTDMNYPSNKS
- Assay Details: Activation of human SIRT1 expressed in Escherichia coli BL21 by mass spectrometry assay
The entries below are paired with their reported Activity.
Output spec: scalar in %, unitless text.

Solved entries (count: 3):
Smiles Str: O=C(Nc1ccccc1-c1cn2c(CN3CC[C@@H](O)C3)csc2n1)c1ccc2ccccc2c1
Outcome Measure: Activity
Reported Result: 296

Smiles Str: O=C(Nc1ccccc1-c1cn2c(CN3CCNCC3)csc2n1)c1cnc2ccccc2n1
Outcome Measure: Activity
Reported Result: 781

Smiles Str: Oc1ccc(/C=C/c2cc(O)cc(O)c2)cc1
Outcome Measure: Activity
Reported Result: 201

Let us examine a further case.
Quick one: Activity of "COc1cc(C(=O)Nc2ccccc2-c2cn3c(CN4CCNCC4)csc3n2)cc(OC)c1OC" ?
447
